target_or_system: recombinant human Factor IX (rhFIX, Genetics Institute) (human) (UniProt P00740)
Sequence (P00740 47-461 limits assumed): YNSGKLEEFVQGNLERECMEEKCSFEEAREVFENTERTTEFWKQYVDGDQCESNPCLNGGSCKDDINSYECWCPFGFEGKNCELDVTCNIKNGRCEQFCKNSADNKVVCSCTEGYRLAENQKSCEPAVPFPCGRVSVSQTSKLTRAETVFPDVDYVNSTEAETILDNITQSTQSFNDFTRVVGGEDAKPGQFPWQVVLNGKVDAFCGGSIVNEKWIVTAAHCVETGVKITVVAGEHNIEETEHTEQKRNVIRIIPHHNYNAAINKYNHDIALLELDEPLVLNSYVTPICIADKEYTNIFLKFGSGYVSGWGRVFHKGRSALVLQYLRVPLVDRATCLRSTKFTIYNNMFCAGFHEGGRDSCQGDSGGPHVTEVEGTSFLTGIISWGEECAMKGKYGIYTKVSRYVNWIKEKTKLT
experiment_summary: BIAcore kinetics of Factor IX binding
Entries annotated with measured kon
Reply numerically in M⁻¹ s⁻¹, unit not repeated.

binder	kon, M⁻¹ s⁻¹
humanized anti-Factor IX monoclonal antibody SB 249416 (antibody, V domains shown) VH: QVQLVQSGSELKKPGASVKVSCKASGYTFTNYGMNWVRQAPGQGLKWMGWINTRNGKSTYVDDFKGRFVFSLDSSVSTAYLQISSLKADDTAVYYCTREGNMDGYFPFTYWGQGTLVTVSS VL: EIVLTQSPATLSLSPGERATLSCRASSSVNYMHWYQQRPGQAPKPWIYATSNLASGVPARFSGSGSGTDYTLTISSLEPEDFAVYYCQQWSINPRTFGGGTKVEIKR	520000
humanized anti-Factor IX monoclonal antibody SB 249413 (antibody, V domains shown) VH: QVQLVQSGSELKKPGASVKVSCKASGYTFTNYGMNWVRQAPGQGLEWMGWINTRNGKSTYVDDFKGRFVFSLDTSVSTAYLQISSLKADDTAVYYCAREGNMDGYFPFTYWGQGTLVTVSS VL: EIVLTQSPATLSLSPGERATLSCRASSSVNYMHWYQQRPGQAPRLLIYATSNLASGIPARFSGSGSGTDFTLTISSLEPEDFAVYYCQQWSINPRTFGGGTKVEIKR	650000

Query string: Report measured kon; entry is humanized anti-Factor IX monoclonal antibody SB 257731 (antibody, V domains shown) VH: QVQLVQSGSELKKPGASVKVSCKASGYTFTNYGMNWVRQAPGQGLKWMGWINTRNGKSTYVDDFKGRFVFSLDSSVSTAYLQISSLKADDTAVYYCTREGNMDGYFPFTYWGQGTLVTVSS VL: QIVLTQSPATLSLSPGERATLSCRASSSVNYMHWYQQRPGQAPKPWIYATSNLASGVPARFSGSGSGTDYTLTISSLEPEDFAVYYCQQWSINPRTFGGGTKVEIK
Result string: 920000
